- Target System: human DGAT1 (Homo sapiens, UniProt O75907)
- Sequence (O75907 whole entry): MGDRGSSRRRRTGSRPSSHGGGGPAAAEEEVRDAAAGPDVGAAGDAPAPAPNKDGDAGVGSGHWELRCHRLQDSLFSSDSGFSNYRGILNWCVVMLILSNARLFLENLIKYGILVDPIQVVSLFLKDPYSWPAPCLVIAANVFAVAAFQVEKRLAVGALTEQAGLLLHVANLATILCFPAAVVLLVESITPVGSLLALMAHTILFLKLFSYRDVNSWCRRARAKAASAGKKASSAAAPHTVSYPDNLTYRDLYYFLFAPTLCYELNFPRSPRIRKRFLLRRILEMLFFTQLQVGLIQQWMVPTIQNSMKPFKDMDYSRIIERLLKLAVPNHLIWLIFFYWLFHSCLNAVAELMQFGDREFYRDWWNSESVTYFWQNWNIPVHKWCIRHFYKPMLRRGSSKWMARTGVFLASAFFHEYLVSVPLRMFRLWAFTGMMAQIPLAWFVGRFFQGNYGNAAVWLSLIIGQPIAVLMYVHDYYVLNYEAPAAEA
pIC50: −log10 of the molar value.
Recorded Endpoint: pIC50

smiles_string=COC(=O)c1ccc(N/C(=N/C#N)N2CCN(c3ccc(NC(=O)c4cccc(N5CCCC5)c4)cc3)CC2)c(Cl)c1 recorded_endpoint=pIC50 value=8.20

----------
Property: melting point; scope: individual compounds
Recorded Endpoint: melting point (°C)

smiles_string=COc1ccc(CC(=O)Nc2ccc(N3CCN(/C(=N\C#N)Nc4c(C)cccc4Cl)CC3)cc2)cc1 units=°C value=206.9
smiles_string=N#C/N=C(/Nc1ccc(C(=O)O)cc1Cl)N1CCN(c2ccc(NC(=O)CCCc3ccccc3)cc2)CC1 units=°C value=208.7
smiles_string=CC(=O)OCC(=O)Nc1ccc(N2CCN(/C(=N\C#N)Nc3c(F)cccc3Cl)CC2)cc1 units=°C value=209
smiles_string=Cc1cccc(Cl)c1N/C(=N/C#N)N1CCN(c2ccc(NC(=O)c3ccc(N4CCN(C)CC4)cc3)cc2)CC1 units=°C value=285.1
smiles_string=CN1CCN(c2ccc(C(=O)Nc3ccc(N4CCN(/C(=N\C#N)Nc5ccccc5Cl)CC4)cc3)cc2)CC1 units=°C value=244.2
smiles_string=COCCN1CCN(C(=O)c2cc(Cl)c(N/C(=N/C#N)N3CCN(c4ccc(NC(=O)Cc5ccc(OC)cc5)cc4)CC3)c(Cl)c2)CC1 units=°C value=205.3

----------
Recorded Endpoint: melting point

compound="Cc1ccccc1-c1cccc(C(=O)Nc2ccc(N3CCN(/C(=N\\C#N)Nc4c(Cl)cc(CN5CCCC5)cc4Cl)CC3)cc2)c1 [Compound 6]" value="217.1 °C"
compound="COc1ccc(CC(=O)Nc2ccc(N3CCN(/C(=N\\C#N)Nc4c(Cl)cc(CN5CCCC5)cc4Cl)CC3)cc2)cc1 [Compound 11]" value="222.4 °C"
compound="CCCCCCC(=O)Nc1ccc(N2CCN(/C(=N\\C#N)Nc3ccc(C(=O)OC)cc3Cl)CC2)cc1 [Compound 14]" value="191.8 °C"
compound="COC(=O)c1ccc(N/C(=N/C#N)N2CCN(c3ccc(NC(=O)c4cccc(N5CCCC5)c4)cc3)CC2)c(Cl)c1 [Compound 9]" value="220.3 °C"
compound="COCCN1CCN(C(=O)c2cc(Cl)c(N/C(=N/C#N)N3CCN(c4ccc(NC(=O)CNc5ccccc5)cc4)CC3)c(Cl)c2)CC1 [Compound 15]" value="211.9 °C"
compound="COCCN1CCN(C(=O)c2cc(Cl)c(N/C(=N/C#N)N3CCN(c4ccc(NC(=O)c5ccccc5N5CCN(C)CC5)cc4)CC3)c(Cl)c2)CC1 [Compound 19]" value="254.2 °C"
